# tgt: AF9 (Homo sapiens, UniProt P42568)
# Sequence (P42568 1-568): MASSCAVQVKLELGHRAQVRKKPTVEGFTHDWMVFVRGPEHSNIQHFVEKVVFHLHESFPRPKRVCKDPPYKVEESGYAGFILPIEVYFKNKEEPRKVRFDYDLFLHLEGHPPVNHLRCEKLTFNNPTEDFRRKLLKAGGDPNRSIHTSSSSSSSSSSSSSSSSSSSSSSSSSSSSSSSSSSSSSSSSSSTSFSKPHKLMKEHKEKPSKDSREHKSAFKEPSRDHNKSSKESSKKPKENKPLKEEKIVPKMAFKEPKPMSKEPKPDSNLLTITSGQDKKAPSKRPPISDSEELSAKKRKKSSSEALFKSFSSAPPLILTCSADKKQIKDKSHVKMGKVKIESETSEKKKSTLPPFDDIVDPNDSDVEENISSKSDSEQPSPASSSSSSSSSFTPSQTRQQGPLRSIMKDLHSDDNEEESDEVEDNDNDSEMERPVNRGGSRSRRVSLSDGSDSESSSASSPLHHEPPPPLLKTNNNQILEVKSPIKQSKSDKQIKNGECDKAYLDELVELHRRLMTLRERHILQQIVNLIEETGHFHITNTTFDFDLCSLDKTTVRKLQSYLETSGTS
# assay_protocol: OctetRed Bio-Layer Interferometry binding to immobilized AF9
# assay_conditions: OctetRed BLI, several tested concentrations; read-out: KD values, global fitting of binding data
parameter_measured: Kd

q: Return the recorded Kd value; entry: CCc1ccc(S(=O)(=O)N2c3ccccc3NC3=C(C(=O)CCC3)C2c2ccco2)cc1 (racemic)
a: 10 to 50 µM
